Every entry's value here was drawn from paper PMC7022617.

target: hemagglutinin HA1 subunit H5 (recombinant, Abcam ab190125) (Influenza A virus A/Vietnam/1203/2004 …, UniProt Q6DQ33 17-346); experiment: SPR; 10 mM K+; settings: protein: commercial
property-label: Kd (nM)
Report as a plain number; the unit nM is understood.

Look over these answered cases.
- binder: "TTGGGGTAAGAAGGGAGGGCGGGGGTT (structured_DNA) [G7-TAAGAA]"
  u: "nM"
  Kd: 60
- binder: "TTGGGGTTAGGGAGGGCGGGGGTT (structured_DNA) [G7-TTA]"
  u: "nM"
  Kd: 20

Qu. Identify Kd associated with the binder TTGGGGTTATTTTGGGAGGGCGGGGGTT (structured_DNA) [RHA0385]
Ans. 13
